Where these numbers come from: the supplement of paper PMC10702517

- test.description: chemical recovery into PDMS from spiked human plasma; higher = better extraction
- assay.setup: pooled human plasma; extraction method: PES with PDMS; equilibration time (d): 3
// NOT MET strictly below 30% in chemical recovery into PDMS; MET otherwise

Is it the case that O=C1Nc2ccc(Cl)cc2C(C#CC2CC2)(C(F)(F)F)O1 (centres undefined) has chemical recovery into PDMS reaching or exceeding 30%?
MET

Is it the case that CCNc1nc(NCC)nc(SC)n1 has chemical recovery into PDMS reaching or exceeding 30%?
NOT MET

Is it the case that COC[P+](c1ccccc1)(c1ccccc1)c1ccccc1 has chemical recovery into PDMS reaching or exceeding 30%?
NOT MET

Is it the case that CC(C)(C)c1ccc(CSc2cnn(C(C)(C)C)c(=O)c2Cl)cc1 has chemical recovery into PDMS reaching or exceeding 30%?
MET

Is it the case that CC(C)C(=O)Nc1ccc([N+](=O)[O-])c(C(F)(F)F)c1 [Flutamide] has chemical recovery into PDMS reaching or exceeding 30%?
MET

Is it the case that Nc1cn[nH]c(=O)c1Cl has chemical recovery into PDMS reaching or exceeding 30%?
NOT MET

Is it the case that c1ccc2c(c1)=c1ccc3c4c(ccc=2c14)=c1ccccc1=3 has chemical recovery into PDMS reaching or exceeding 30%?
MET

Is it the case that Clc1ccc(Cl)c(-c2cc(Cl)c(Cl)cc2Cl)c1 has chemical recovery into PDMS reaching or exceeding 30%?
MET

Is it the case that c1ccc(Nc2cccc3ccccc23)cc1 has chemical recovery into PDMS reaching or exceeding 30%?
NOT MET

====

- test.description: chemical recovery by SPE of plasma after PDMS sampling; higher = better extraction
- assay.setup: pooled human plasma; extraction method: HLB SPE of plasma after PES; equilibration time (d): 6
// f strictly below 30% in chemical recovery by SPE of plasma; t otherwise

Is it the case that NS(=O)(=O)c1cc(C(=O)O)c(NCc2ccco2)cc1Cl [Furosemide] has chemical recovery by SPE of plasma reaching or exceeding 30%?
t

Is it the case that C[C@]12CCC(=O)C=C1[C@@H]1C[C@@H]1[C@H]1[C@@H]3[C@@H]4C[C@@H]4[C@@]4(CCC(=O)O4)[C@@]3(C)CC[C@@H]12 has chemical recovery by SPE of plasma reaching or exceeding 30%?
f

Is it the case that Cc1cccc(C(=O)O)c1N(Cn1cccn1)C(=O)C(=O)O has chemical recovery by SPE of plasma reaching or exceeding 30%?
t

Is it the case that C#C[C@]1(O)C=C[C@H]2[C@@H]3CCC4=CC(=O)CC[C@@H]4[C@H]3CC[C@@]21CC has chemical recovery by SPE of plasma reaching or exceeding 30%?
f

Is it the case that COc1cc(NS(=O)(=O)c2ccc(N)cc2)nc(OC)n1 has chemical recovery by SPE of plasma reaching or exceeding 30%?
t

Is it the case that CC(C)(C)C(=O)C(Oc1ccc(Cl)cc1)n1ccnc1 (configuration not stated) has chemical recovery by SPE of plasma reaching or exceeding 30%?
f

Is it the case that CCOC(=O)c1ccc(N)cc1 has chemical recovery by SPE of plasma reaching or exceeding 30%?
f

Is it the case that ClC1=C(Cl)C2(Cl)C3C4OC4C(Cl)C3C1(Cl)C2(Cl)Cl (configuration not stated) [Heptachlorepoxide] has chemical recovery by SPE of plasma reaching or exceeding 30%?
f

Is it the case that CCNc1nc(Cl)nc(NCC)n1 has chemical recovery by SPE of plasma reaching or exceeding 30%?
f

Is it the case that CN(Cc1nc2c(N)nc(N)nc2nc1O)c1ccc(C(=O)N[C@@H](CCC(=O)O)C(=O)O)cc1 [7-Hydroxymethotrexate] has chemical recovery by SPE of plasma reaching or exceeding 30%?
t

Is it the case that CCc1cccc(C)c1N(C(=O)CS(=O)(=O)O)[C@@H](C)C(=O)O [Metolachlor-NOA 413-173] has chemical recovery by SPE of plasma reaching or exceeding 30%?
t

Is it the case that c1ccc(-c2ccccc2-c2ccccc2)cc1 has chemical recovery by SPE of plasma reaching or exceeding 30%?
f

Is it the case that COc1cc(OC)nc(NC(=O)NS(=O)(=O)c2ncccc2C(=O)N(C)C)n1 has chemical recovery by SPE of plasma reaching or exceeding 30%?
t

Is it the case that COc1c(C)c2c(c(O)c1C/C=C(\C)CCC(=O)O)C(=O)OC2 has chemical recovery by SPE of plasma reaching or exceeding 30%?
t

Is it the case that CC(=O)CCCCn1c(=O)c2c(ncn2C)n(C)c1=O has chemical recovery by SPE of plasma reaching or exceeding 30%?
f

Is it the case that c1ccc(-c2ccc(C(c3ccccc3)n3ccnc3)cc2)cc1 (configuration not stated) has chemical recovery by SPE of plasma reaching or exceeding 30%?
f

Is it the case that CN(C)CCOC(c1ccccc1)c1ccccc1 [Diphenhydramine] has chemical recovery by SPE of plasma reaching or exceeding 30%?
f

Is it the case that C=CCOC(Cn1ccnc1)c1ccc(Cl)cc1Cl (configuration not stated) has chemical recovery by SPE of plasma reaching or exceeding 30%?
f

Is it the case that Cc1cccc(C)c1N(Cn1cccn1)C(=O)C[S+](C)[O-] (configuration not stated) has chemical recovery by SPE of plasma reaching or exceeding 30%?
t

Is it the case that Cc1nc(N(C)C)nc(OC(=O)N(C)C)c1C has chemical recovery by SPE of plasma reaching or exceeding 30%?
f

Is it the case that c1ccc2sc(SNC3CCCCC3)nc2c1 [N-Cyclohexyl-2-benzothiazole-sulfenamide] has chemical recovery by SPE of plasma reaching or exceeding 30%?
t

Is it the case that Nc1ccccc1Br has chemical recovery by SPE of plasma reaching or exceeding 30%?
f

Is it the case that O=S(=O)(O)c1nc2ccccc2s1 has chemical recovery by SPE of plasma reaching or exceeding 30%?
t

Is it the case that OC(Cc1ccccc1Cl)(Cn1cncn1)C1(Cl)CC1 (configuration not stated) has chemical recovery by SPE of plasma reaching or exceeding 30%?
f

Is it the case that CCOP(=S)(OCC)Oc1cc(C)nc(C(C)C)n1 has chemical recovery by SPE of plasma reaching or exceeding 30%?
f

Is it the case that CC(C)(C)c1ccc(S(N)(=O)=O)cc1 [4-tert-Butylbenzenesulfonamide] has chemical recovery by SPE of plasma reaching or exceeding 30%?
f

Is it the case that N#Cc1nn(-c2c(Cl)cc(C(F)(F)F)cc2Cl)c(N)c1C(F)(F)F has chemical recovery by SPE of plasma reaching or exceeding 30%?
f

Is it the case that CN1CCCC(n2nc(Cc3ccc(Cl)cc3)c3ccccc3c2=O)CC1 (configuration not stated) has chemical recovery by SPE of plasma reaching or exceeding 30%?
f

Is it the case that CC1(C)CCC(Cc2ccc(Cl)cc2)C1(O)Cn1cncn1 (configuration not stated) has chemical recovery by SPE of plasma reaching or exceeding 30%?
f

Is it the case that C/C(=N\C#N)N(C)Cc1ccc(Cl)nc1 has chemical recovery by SPE of plasma reaching or exceeding 30%?
t

Is it the case that CC1(C)CC(=O)CC(C)(C)N1 has chemical recovery by SPE of plasma reaching or exceeding 30%?
f

Is it the case that c1ccc2c(c1)-c1ccc3ccc4cccc5cc-2c1c3c45 has chemical recovery by SPE of plasma reaching or exceeding 30%?
f

Is it the case that COc1cc([C@@H]2c3cc4c(cc3[C@@H](O[C@@H]3O[C@@H]5CO[C@@H](C)O[C@H]5[C@H](O)[C@H]3O)[C@H]3COC(=O)[C@H]23)OCO4)cc(OC)c1O [Etoposide] has chemical recovery by SPE of plasma reaching or exceeding 30%?
t

Is it the case that CO/N=C(/C1=NOCCO1)c1ccccc1Oc1ncnc(Oc2ccccc2Cl)c1F has chemical recovery by SPE of plasma reaching or exceeding 30%?
f

Is it the case that NC(=O)/N=C1\SCCN1Cc1ccc(Cl)nc1 [Thiacloprid amide] has chemical recovery by SPE of plasma reaching or exceeding 30%?
t

Is it the case that Nc1nc(N)nc(NC2CC2)n1 has chemical recovery by SPE of plasma reaching or exceeding 30%?
f
